Numbers sourced from the MegaScale stability set (Tsuboyama et al. 2023).

B1: EEHEE_rd4_0763 (parent)
chain: LTVHVGNVTYHFDNPEQAEEWAKRMAKKYQGQIHVKDGQFRIE

- Variants of: B1
- protocol: folding stability dG (cDNA display proteolysis); higher = more stable
- measurement.parameters: PBS, room temperature
Use condition met when the recorded folding stability dG is no lower than 1 kcal/mol; use condition not met when it is lower.

[[record]]
sequence_chain = "LRVHVGNVTYHFDNPEQAEEWAKRMAKKYQGQIHVKDGQFRIE [T2R]"
assigned_category = "condition met"

[[record]]
sequence_chain = "LTIHVGNVTYHFDNPEQAEEWAKRMAKKYQGQIHVKDGQFRIE [V3I]"
assigned_category = "condition met"

[[record]]
sequence_chain = "LTVHVGNVTYWFDNPEQAEEWAKRMAKKYQGQIHVKDGQFRIE [H11W]"
assigned_category = "condition met"

[[record]]
sequence_chain = "LTVHVGNVTYHFDNPEQAEEWAKSMAKKYQGQIHVKDGQFRIE [R24S]"
assigned_category = "condition met"

[[record]]
sequence_chain = "LTVHVGNVTYHFDNGEQAEEWAKRMAKKYQGQIHVKDGQFRIE [P15G]"
assigned_category = "condition met"

[[record]]
sequence_chain = "LTVHVGNVTYHFDNPEQAEEWAARMAKKYQGQIHVKDGQFRIE [K23A]"
assigned_category = "condition met"

[[record]]
sequence_chain = "LTVHVGNVTYHFDNPEQAEEWAKRMAKKYQGQIHVKDGQFRIR [E43R]"
assigned_category = "condition met"

[[record]]
sequence_chain = "LTVHVGNVTYFFDNPEQAEEWAKRMAKKYQGQIHVKDGQFRIE [H11F]"
assigned_category = "condition met"

[[record]]
sequence_chain = "LTVGVGNVTYHFDNPEQAEEWAKRMAKKYQGQIHVKDGQFRIE [H4G]"
assigned_category = "condition not met"

[[record]]
sequence_chain = "LTVHVGNVTYHFDNPEQAEEWAKRMAKKYQGQIFVKDGQFRIE [H34F]"
assigned_category = "condition met"

[[record]]
sequence_chain = "LTSHVGNVTYHFDNPEQAEEWAKRMAKKYQGQIHVKDGQFRIE [V3S]"
assigned_category = "condition not met"

[[record]]
sequence_chain = "LTVHVGNVTYHDDNPEQAEEWAKRMAKKYQGQIHVKDGQFRIE [F12D]"
assigned_category = "condition not met"

[[record]]
sequence_chain = "LTVAVGNVTYHFDNPEQAEEWAKRMAKKYQGQIHVKDGQFRIE [H4A]"
assigned_category = "condition met"

[[record]]
sequence_chain = "LTVHVGNVTYHFDNPEQAEEWAKRMAKKYQGQIHVKDGQIRIE [F40I]"
assigned_category = "condition met"

[[record]]
sequence_chain = "LTVHVGNVTYHFDNPEQAEEWAKRMAKKYQGQIHVKDMQFRIE [G38M]"
assigned_category = "condition not met"

[[record]]
sequence_chain = "LTVHVGNVTYHKDNPEQAEEWAKRMAKKYQGQIHVKDGQFRIE [F12K]"
assigned_category = "condition not met"

[[record]]
sequence_chain = "LTVHVGNVTYMFDNPEQAEEWAKRMAKKYQGQIHVKDGQFRIE [H11M]"
assigned_category = "condition met"

[[record]]
sequence_chain = "LTVHVGNVTYHFDNPEQAEEWAKRMAKKYGGQIHVKDGQFRIE [Q30G]"
assigned_category = "condition met"

[[record]]
sequence_chain = "LTVHVGNVTYHFDNPEQAEEWAKRMAKKYQGQIHVKAGQFRIE [D37A]"
assigned_category = "condition not met"

[[record]]
sequence_chain = "LTVHVGNVTYHFDNPEHAEEWAKRMAKKYQGQIHVKDGQFRIE [Q17H]"
assigned_category = "condition met"

[[record]]
sequence_chain = "LTVWVGNVTYHFDNPEQAEEWAKRMAKKYQGQIHVKDGQFRIE [H4W]"
assigned_category = "condition met"

[[record]]
sequence_chain = "LTVHVGNVTYHFDNPEQAEEWAKRMAKKYQGQIHVVDGQFRIE [K36V]"
assigned_category = "condition met"

[[record]]
sequence_chain = "LTVHVGNVTYNFDNPEQAEEWAKRMAKKYQGQIHVKDGQFRIE [H11N]"
assigned_category = "condition met"

[[record]]
sequence_chain = "LTVHVGNVTYHFDNPEQAEEWAKRMAKKYQGQIHVKDGQFNIE [R41N]"
assigned_category = "condition met"

[[record]]
sequence_chain = "LTVHVGNVTYHFDNPEQAEEWAKRMAKKYQGQCHVKDGQFRIE [I33C]"
assigned_category = "condition met"

[[record]]
sequence_chain = "LTVHVGNVTYHFDNPEQAEEWAKRMAKKYQGQIHVKDGQFREE [I42E]"
assigned_category = "condition met"

[[record]]
sequence_chain = "LTVHVGNVTYRFDNPEQAEEWAKRMAKKYQGQIHVKDGQFRIE [H11R]"
assigned_category = "condition met"

[[record]]
sequence_chain = "LTVHVGNVTYHFDNPEQWEEWAKRMAKKYQGQIHVKDGQFRIE [A18W]"
assigned_category = "condition met"

[[record]]
sequence_chain = "LTVHVGNVTYHFDNPEQAEEWAKRMAKKKQGQIHVKDGQFRIE [Y29K]"
assigned_category = "condition not met"

[[record]]
sequence_chain = "LTVHVGNVTYHFDNPEQAEEWAKRMAKKYRGQIHVKDGQFRIE [Q30R]"
assigned_category = "condition met"

[[record]]
sequence_chain = "LTVHVGNVTYHFDNPEQAEEWAKRMAKKYQGFIHVKDGQFRIE [Q32F]"
assigned_category = "condition met"

[[record]]
sequence_chain = "LTVHVGNVTYDFDNPEQAEEWAKRMAKKYQGQIHVKDGQFRIE [H11D]"
assigned_category = "condition not met"

[[record]]
sequence_chain = "LTVHVGNVTYHFDNPEQAEEWAKRMAKKYQTQIHVKDGQFRIE [G31T]"
assigned_category = "condition met"

[[record]]
sequence_chain = "LTVHVGNVTYHFDNPEQAEEWAKRMAKMYQGQIHVKDGQFRIE [K28M]"
assigned_category = "condition met"

[[record]]
sequence_chain = "LTVHVGNVTYHFDNPEQAEEWVKRMAKKYQGQIHVKDGQFRIE [A22V]"
assigned_category = "condition met"

[[record]]
sequence_chain = "LTVHVGNVTYHFDNPEQAEEWAKRMAFKYQGQIHVKDGQFRIE [K27F]"
assigned_category = "condition met"

[[record]]
sequence_chain = "LTVHVGNVTYHFDNPEQAEEWAKRMAKKYQGQKHVKDGQFRIE [I33K]"
assigned_category = "condition not met"

[[record]]
sequence_chain = "LTVHVGNVTYHFDNPEQAEEWAKRMASKYQGQIHVKDGQFRIE [K27S]"
assigned_category = "condition met"

[[record]]
sequence_chain = "LTVHVGNVTYHFDNPEQAEEWAKRPAKKYQGQIHVKDGQFRIE [M25P]"
assigned_category = "condition not met"

[[record]]
sequence_chain = "LTVHLGNVTYHFDNPEQAEEWAKRMAKKYQGQIHVKDGQFRIE [V5L]"
assigned_category = "condition met"

[[record]]
sequence_chain = "LWVHVGNVTYHFDNPEQAEEWAKRMAKKYQGQIHVKDGQFRIE [T2W]"
assigned_category = "condition met"

[[record]]
sequence_chain = "LTVHVGNVTYHFCNPEQAEEWAKRMAKKYQGQIHVKDGQFRIE [D13C]"
assigned_category = "condition met"

[[record]]
sequence_chain = "LTVHVGNVTCHFDNPEQAEEWAKRMAKKYQGQIHVKDGQFRIE [Y10C]"
assigned_category = "condition met"

[[record]]
sequence_chain = "LTVHVGNVTYEFDNPEQAEEWAKRMAKKYQGQIHVKDGQFRIE [H11E]"
assigned_category = "condition met"

[[record]]
sequence_chain = "LTVHVGNVTYHQDNPEQAEEWAKRMAKKYQGQIHVKDGQFRIE [F12Q]"
assigned_category = "condition not met"

[[record]]
sequence_chain = "LTVHVGNVTYHFDNPEQAEEWAKRMTKKYQGQIHVKDGQFRIE [A26T]"
assigned_category = "condition not met"

[[record]]
sequence_chain = "LTVHVGNVTYHFDNPEQAEEWQKRMAKKYQGQIHVKDGQFRIE [A22Q]"
assigned_category = "condition not met"

[[record]]
sequence_chain = "LTVHVGNVTYHFDNPEQAEEWAKRMAKKYQGQIHVKDGQFRIY [E43Y]"
assigned_category = "condition met"

[[record]]
sequence_chain = "LTVHVGNVTYHFDNPEQAEEWAKRMVKKYQGQIHVKDGQFRIE [A26V]"
assigned_category = "condition met"

[[record]]
sequence_chain = "LTVHVGNVTYHFDNPEQAEEWAKWMAKKYQGQIHVKDGQFRIE [R24W]"
assigned_category = "condition met"

[[record]]
sequence_chain = "LTVHVGNVTYHFDNWEQAEEWAKRMAKKYQGQIHVKDGQFRIE [P15W]"
assigned_category = "condition met"

[[record]]
sequence_chain = "LTVHVGNVTYHFDNPRQAEEWAKRMAKKYQGQIHVKDGQFRIE [E16R]"
assigned_category = "condition met"

[[record]]
sequence_chain = "LTVHVGNVTYHFDNPEQAEEWAKRMAKKYQGQIHVKDGQFRIC [E43C]"
assigned_category = "condition met"

[[record]]
sequence_chain = "LTCHVGNVTYHFDNPEQAEEWAKRMAKKYQGQIHVKDGQFRIE [V3C]"
assigned_category = "condition met"

[[record]]
sequence_chain = "LTVHVGNVTYHFDNPEQAEEWAKRMAKKYQGQIYVKDGQFRIE [H34Y]"
assigned_category = "condition met"

[[record]]
sequence_chain = "LTVHVGNVTYHFDNPEQAEEWAKRMAKKYQKQIHVKDGQFRIE [G31K]"
assigned_category = "condition met"

[[record]]
sequence_chain = "LTQHVGNVTYHFDNPEQAEEWAKRMAKKYQGQIHVKDGQFRIE [V3Q]"
assigned_category = "condition not met"

[[record]]
sequence_chain = "LTVHVFNVTYHFDNPEQAEEWAKRMAKKYQGQIHVKDGQFRIE [G6F]"
assigned_category = "condition met"

[[record]]
sequence_chain = "LTVHVGNVTYHFDNPEQAEEWAKRMAKKYQGQIHVKLGQFRIE [D37L]"
assigned_category = "condition met"

[[record]]
sequence_chain = "LTVHVGNVTYHFDNPEQAEEWHKRMAKKYQGQIHVKDGQFRIE [A22H]"
assigned_category = "condition not met"

[[record]]
sequence_chain = "LTVHVGNVTYHFDNPELAEEWAKRMAKKYQGQIHVKDGQFRIE [Q17L]"
assigned_category = "condition met"

[[record]]
sequence_chain = "LTVHVGNVYYHFDNPEQAEEWAKRMAKKYQGQIHVKDGQFRIE [T9Y]"
assigned_category = "condition met"

[[record]]
sequence_chain = "LTVHVGNVTYHFDNPEQAEEWAKRMAKKTQGQIHVKDGQFRIE [Y29T]"
assigned_category = "condition met"

[[record]]
sequence_chain = "LTVHVGRVTYHFDNPEQAEEWAKRMAKKYQGQIHVKDGQFRIE [N7R]"
assigned_category = "condition met"

[[record]]
sequence_chain = "LTVHGGNVTYHFDNPEQAEEWAKRMAKKYQGQIHVKDGQFRIE [V5G]"
assigned_category = "condition not met"

[[record]]
sequence_chain = "LTVHVGNVTYHFDRPEQAEEWAKRMAKKYQGQIHVKDGQFRIE [N14R]"
assigned_category = "condition met"

[[record]]
sequence_chain = "LTVHVGNVTYHFDNPEQKEEWAKRMAKKYQGQIHVKDGQFRIE [A18K]"
assigned_category = "condition not met"

[[record]]
sequence_chain = "LTVHVGNVTYVFDNPEQAEEWAKRMAKKYQGQIHVKDGQFRIE [H11V]"
assigned_category = "condition met"

[[record]]
sequence_chain = "LTVHVGNVTYHFDNPEQAEEWAKRMAKKYQIQIHVKDGQFRIE [G31I]"
assigned_category = "condition met"

[[record]]
sequence_chain = "LTVHVGNVTYHFDNPEQAEEWAKRMAKKYQGQIHVKDGRFRIE [Q39R]"
assigned_category = "condition met"

[[record]]
sequence_chain = "LTVHVGNVRYHFDNPEQAEEWAKRMAKKYQGQIHVKDGQFRIE [T9R]"
assigned_category = "condition met"

[[record]]
sequence_chain = "LTVHVGNVTYHFDNPEQAEEWACRMAKKYQGQIHVKDGQFRIE [K23C]"
assigned_category = "condition met"

[[record]]
sequence_chain = "LNVHVGNVTYHFDNPEQAEEWAKRMAKKYQGQIHVKDGQFRIE [T2N]"
assigned_category = "condition met"

[[record]]
sequence_chain = "LTVHVGNETYHFDNPEQAEEWAKRMAKKYQGQIHVKDGQFRIE [V8E]"
assigned_category = "condition met"

[[record]]
sequence_chain = "LTVLVGNVTYHFDNPEQAEEWAKRMAKKYQGQIHVKDGQFRIE [H4L]"
assigned_category = "condition met"

[[record]]
sequence_chain = "LTVHVGNVTYHFDNPEQAEEWAKRMAKKYQGQIWVKDGQFRIE [H34W]"
assigned_category = "condition met"

[[record]]
sequence_chain = "LTVHVGDVTYHFDNPEQAEEWAKRMAKKYQGQIHVKDGQFRIE [N7D]"
assigned_category = "condition met"

[[record]]
sequence_chain = "ETVHVGNVTYHFDNPEQAEEWAKRMAKKYQGQIHVKDGQFRIE [L1E]"
assigned_category = "condition not met"

[[record]]
sequence_chain = "LTVHVGNVTYHFDNPEQAPEWAKRMAKKYQGQIHVKDGQFRIE [E19P]"
assigned_category = "condition not met"

[[record]]
sequence_chain = "LTVHVGNVTYHFDNPAQAEEWAKRMAKKYQGQIHVKDGQFRIE [E16A]"
assigned_category = "condition met"

[[record]]
sequence_chain = "LTVHVGNVTYHFDNPEQAEEWAKRMAKKYQMQIHVKDGQFRIE [G31M]"
assigned_category = "condition met"

[[record]]
sequence_chain = "LTVHVGNVTYHFDNPEQAEEWAKRMAKKYQGQIHVKDPQFRIE [G38P]"
assigned_category = "condition met"

[[record]]
sequence_chain = "LTVHVGNVTYHFDNPEQAEEWAKRMAKKYQGQIHYKDGQFRIE [V35Y]"
assigned_category = "condition met"

[[record]]
sequence_chain = "LTVHVGNDTYHFDNPEQAEEWAKRMAKKYQGQIHVKDGQFRIE [V8D]"
assigned_category = "condition met"

[[record]]
sequence_chain = "LTVHVGNVTYHFDNPEQAEEWAKRQAKKYQGQIHVKDGQFRIE [M25Q]"
assigned_category = "condition not met"

[[record]]
sequence_chain = "LTVHVGNVMYHFDNPEQAEEWAKRMAKKYQGQIHVKDGQFRIE [T9M]"
assigned_category = "condition met"

[[record]]
sequence_chain = "LTVHVGNVTYHFDNPEQAEEWAKRMAKKYQGQIHVKDEQFRIE [G38E]"
assigned_category = "condition met"

[[record]]
sequence_chain = "LTVHVGNVTYHFDNPEQNEEWAKRMAKKYQGQIHVKDGQFRIE [A18N]"
assigned_category = "condition not met"

[[record]]
sequence_chain = "LTVHVGNVTYHFDNPEQAEEWAKRMAKKYQGQIHMKDGQFRIE [V35M]"
assigned_category = "condition met"

